system: HT-1080; assay: Modulatory profiling: Alamar Blue viability, lethal compound cotreated with death modulator (EC50, AUC); format: cell-based; set-up: unit not given beside the values; settings: HT-1080, modulator ActD
Reported Metric: AUC HT.ActD
Lab note: write the figure by itself, no unit.

Problem: # lookup: AUC HT.ActD of CN(C)CC(O)Cn1c2ccc(Cl)cc2c2cc(Cl)ccc21 (stereo not drawn) [CIL5]
Solution: −0.00753

New cases:
Problem: # lookup: AUC HT.ActD of COc1ccccc1/C=C/C1(C(=O)NC2CCCC2)CC(=O)N1c1ccc(F)cc1 (stereo not drawn) [CIL1]
Solution: −0.04057

Problem: Check COc1cc([C@@H]2c3cc4c(cc3[C@@H](O[C@@H]3O[C@@H]5CO[C@@H](C)O[C@H]5[C@H](O)[C@H]3O)[C@H]3COC(=O)[C@H]23)OCO4)cc(OC)c1O [Etoposide] too.
Solution: −0.09944

Problem: Check CC(C)C[C@H](NC(=O)[C@H](Cc1ccccc1)NC(=O)c1cnccn1)B(O)O [Bortezomib] too.
Solution: −0.07229

Problem: Check CCOC(=O)[C@@H]1[C@@H](c2ccccc2)C(=O)CCN1NC(=O)c1ccccc1 [CIL89] too.
Solution: 0.03977

* * *

tested on: HT-1080; experiment: Modulatory profiling: Alamar Blue viability, lethal compound cotreated with death modulator (EC50, AUC); format: cell-based; conditions: HT-1080, modulator CspA
Where a SMILES comes first, the peptide text is derived from it. The star is where a group is joined. Cbz = O=C(OCc1ccccc1)*
Parameter: AUC HT.CspA. Scope: all listed entries.
Lab note: write the figure by itself, no unit.

Problem: # lookup: AUC HT.CspA of OCCNCC(O)Cn1c2ccc(Br)cc2c2cc(Br)ccc21 (centres unmarked) [CIL7]
Solution: −0.06441

New cases:
Problem: # lookup: AUC HT.CspA of O=c1c(Cl)c(Cl)cnn1-c1ccc(Cl)cc1 [CIL63]
Solution: 0.003063

Problem: Check CC(C)C[C@@H](C=O)NC(=O)[C@H](CC(C)C)NC(=O)[C@H](CC(C)C)NC(=O)OCc1ccccc1 [MG132, reference compound] (Cbz-Leu-Leu-Leu-aldehyde) too.
Solution: −0.3221

Problem: Check CCCCNc1cc(C)nc(NCc2ccccc2)n1 [CIL18] too.
Solution: −0.04827

Problem: Check C[S+]([O-])c1nc(-c2ccc(Br)cc2)cc(-c2ccccc2)c1C#N (centres unmarked) [CIL17] too.
Solution: −0.03354

* * *

Parameter: AUC HT.NMMA. Scope: all listed entries.
test system: HT-1080; experiment: Modulatory profiling: Alamar Blue viability, lethal compound cotreated with death modulator (EC50, AUC); format: cell-based; settings: HT-1080, modulator NMMA
Lab note: write the figure by itself, no unit.

Problem: # lookup: AUC HT.NMMA of "CCCCNc1c(Cl)cnn(-c2ccccc2)c1=O"
Solution: −0.009501

Problem: Check COc1ccccc1/C=C/C1(C(=O)NC2CCCC2)CC(=O)N1c1ccc(F)cc1 (stereo not shown) too.
Solution: −0.0482

Problem: Check Cc1[nH]c2c(ccc3ccccc32)c1C1C(CCN)C1(C)C (stereo not shown) too.
Solution: 9.3282E−05

Problem: Check "CC[C@]1(O)C[C@H]2CN(CCc3c([nH]c4ccccc34)[C@@](C(=O)OC)(c3cc4c(cc3OC)N(C=O)[C@H]3[C@@](O)(C(=O)OC)[C@H](OC(C)=O)[C@]5(CC)C=CCN6CC[C@]43[C@@H]65)C2)C1" too.
Solution: 0.004831

Problem: Check "[O-][N+]1=c2ccc(Nc3ccccc3)cc2=NC12CCCCC2" too.
Solution: −0.01421

Problem: Check "C/C(=N\Nc1ncc(Cl)cc1Cl)c1ccccn1" too.
Solution: −0.1742

New cases:
Problem: # lookup: AUC HT.NMMA of "CC(/C=C/C(=O)NO)=C\[C@@H](C)C(=O)c1ccc(N(C)C)cc1"
Solution: 0.004335

Problem: Check "O=P(Oc1ccccc1)(Oc1ccccc1)O[C@@H]1C=CS(=O)(=O)C1" too.
Solution: −0.0419

Problem: Check "COc1cccc(-n2nnnc2S(C)(=O)=O)c1" too.
Solution: −0.03154

Problem: Check "COc1cccc2c1C(=O)c1c(O)c3c(c(O)c1C2=O)C[C@@](O)(C(C)=O)C[C@@H]3O[C@H]1C[C@H](N)[C@H](O)[C@H](C)O1" too.
Solution: 0.0183

* * *

Parameter: AUC, modulator BJ.Co2+. Scope: all listed entries.
system: BJeLR; test: Modulatory profiling: Alamar Blue viability, lethal compound cotreated with death modulator (EC50, AUC); format: cell-based, human; set-up: unit not given beside the values; settings: BJeLR cells; lethal compound cotreated with modulator Co2+; modulatory profile value (AUC)
Lab note: write the figure by itself, no unit.

A selection of reference data follows.
Problem: # lookup: AUC, modulator BJ.Co2+ of COc1cccc(-n2nnnc2S(C)(=O)=O)c1 [CIL16]
Solution: 0.07207

Problem: Check O=S(=O)(c1ccc2c(c1)C(=NO)c1cc(S(=O)(=O)N3CCCCC3)ccc1-2)N1CCCCC1 [CIL56] too.
Solution: 0.1263

Problem: Check O=C1C(Cl)=C(N2CCOCC2)C(=O)C(Cl)=C1N1CCOCC1 [CIL11] too.
Solution: 0.07771

Problem: Check C(=N\Nc1nc2ccccc2s1)/c1ccccn1 [CIL52] too.
Solution: 0.7978

Problem: Check COc1c2c(cc3c1C(CC(=O)/C=C/c1ccccc1)[N+](C)(C)CC3)OCO2 (stereo not shown) [CIL77] too.
Solution: 0.1866

Problem: Check COc1ccc(N(C(=O)CCl)C(C(=O)NCCc2ccccc2)c2cccs2)cc1 (stereo not shown) [DPI4] too.
Solution: 0.116

Problem: Check C[C@H]1CCC[C@]2(C)C[C@H]3OC(=O)[C@H](CN4CCCC4)[C@H]3C=C12 [CIL80] too.
Solution: 0.09506

Problem: Check CCCCNc1cc(C)nc(NCc2ccccc2)n1 [CIL18] too.
Solution: 0.08943

Problem: Check Cc1cccc(Cn2ncc(Cl)c(Cl)c2=O)c1 [CIL60] too.
Solution: 0.03836

New cases:
Problem: # lookup: AUC, modulator BJ.Co2+ of N/C(=N\OC(=O)C12CC3CC(CC(C3)C1)C2)c1ccccc1 [CIL41]
Solution: −0.02378

* * *

system: BJeLR; test: Modulatory profiling: Alamar Blue viability, lethal compound cotreated with death modulator (EC50, AUC); format: cell-based, human; design: unit not given beside the values; conditions: BJeLR cells; lethal compound cotreated with modulator ALLN; modulatory profile value (AUC)
Parameter: AUC, modulator BJ.ALLN. Scope: all listed entries.
Lab note: write the figure by itself, no unit.

A selection of reference data follows.
Problem: # lookup: AUC, modulator BJ.ALLN of "COc1nn(-c2ccccc2)c(=O)c(Cl)c1Cl"
Solution: −0.04561

Problem: Check "[N-]=[N+]=[N-].[Na+]" too.
Solution: −0.00382

Problem: Check "CCCCNc1c(Cl)cnn(-c2ccccc2)c1=O" too.
Solution: −0.03236

Problem: Check "CC[C@@]1(O)C(=O)OCc2c1cc1n(c2=O)Cc2cc3ccccc3nc2-1" too.
Solution: 0.03368

Problem: Check CC(C)=CCCC1=CCC(CNCCCN(C)C)C(C)C1 (centres unmarked) too.
Solution: −0.02065

New cases:
Problem: # lookup: AUC, modulator BJ.ALLN of "CCCS(=O)(=O)c1nnnn1-c1cccc(OC)c1"
Solution: −0.06757

Problem: Check "CN(C)CCNC(=O)c1cc2c(s1)-c1ccc(Cl)cc1SC2" too.
Solution: −0.04685

Problem: Check "O=C(CCl)N(c1ccc(Cl)cc1)c1c[nH]c2ccccc12" too.
Solution: 0.01301

Problem: Check "CN(C)CCCOS(=O)(=O)c1ccc(N2CCC(c3ccc(Cl)cc3)=N2)cc1" too.
Solution: −0.02592

Problem: Check "O=S1(=O)Nc2c(ccc3cccnc23)-c2ccccc21" too.
Solution: 0.02149

Problem: Check "Cc1cccnc1Nc1nc(-c2ccccn2)cs1" too.
Solution: −0.03933

Problem: Check "O=C1c2ccccc2-c2onc3ccc(Oc4ccccc4)c1c23" too.
Solution: −0.0496

* * *

Parameter: EC50. Scope: all listed entries.
system: HT-1080 cells; assay: Lethality of commercially available CIL41/70 structural analogs; assay type: cell-based; conditions: Homo sapiens, tested once in technical triplicates

Problem: # lookup: EC50 of COc1ccccc1C/C(N)=N/OC(=O)COc1cccc(C)c1 [CB26]
Solution: > 20 µg/mL

Problem: Check CC(=O)O/N=C(\N)Cc1csc2ccc(Cl)cc12 [MB5] too.
Solution: > 20 µg/mL

Problem: Check Cc1cc(C(F)(F)F)nn1C/C(N)=N/OC(=O)C1CCCCC1 [ZE15] too.
Solution: > 20 µg/mL

Problem: Check Cc1nn(C/C(N)=N\OC(=O)COc2cc(Cl)ccc2Cl)c(C)c1[N+](=O)[O-] [ZE14] too.
Solution: > 20 µg/mL

Let us move to another entry and its EC50.
Problem: # lookup: EC50 of COc1ccccc1C/C(N)=N/OC(=O)c1ccc2c(c1)OCO2 [A05]
Solution: 5.04 µg/mL
